tgt: Epidermal growth factor receptor (Homo sapiens)
procedureDetails: EGFR binders on small-molecule microarrays, primary screen, biochemical, small-molecule microarray, 635 nm fluorescence (AID 1104);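 also: score merges 667 nm emission intensity with spot signal to noise over triplicate slides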
conditionNotes: EGFR binding, higher = more signal
measuredAttribute: composite z-score

[[record]]
structurenotation = "CC(C)(C)N1C(=O)[C@H]2[C@H]3[C@H](O)[C@H](O)CC(=O)[C@@H]3CC[C@H]2C1=O"
tgt = "Epidermal growth factor receptor (Homo sapiens)"
reading = 0.479

[[record]]
structurenotation = "C#CCCCON=C1C[C@@H](O)[C@@H](O)[C@@H]2[C@@H]3C(=O)N(c4ccc(F)cc4F)C(=O)[C@@H]3CC[C@@H]12"
tgt = "Epidermal growth factor receptor (Homo sapiens)"
reading = 0.259

[[record]]
structurenotation = "O=C1C[C@@H](O)[C@@H](O)[C@@H]2[C@@H]3C(=O)N(Cc4ccccc4)C(=O)[C@@H]3CC[C@@H]12"
tgt = "Epidermal growth factor receptor (Homo sapiens)"
reading = 0.506

[[record]]
structurenotation = "COC(=O)CC=C[C@@H](C)[C@@H](C=NOC[C@@H](O)[C@H]1O[C@@H]2OC(C)(C)O[C@@H]2[C@H]1O)NS(=O)(=O)c1ccc(C)cc1"
tgt = "Epidermal growth factor receptor (Homo sapiens)"
reading = 0.419

[[record]]
structurenotation = "COc1cccc([C@H]2Oc3ccc(OC)cc3C(=NO[C@@H](C)c3cn([C@H](CO)Cc4ccccc4)nn3)[C@@H]2O)c1"
tgt = "Epidermal growth factor receptor (Homo sapiens)"
reading = -0.0558

[[record]]
structurenotation = "CCOC(=O)NN=C1C[C@@H](O)[C@@H](O)[C@@H]2[C@@H]3C(=O)N([C@@H](C)c4ccccc4)C(=O)[C@@H]3CC[C@H]12"
tgt = "Epidermal growth factor receptor (Homo sapiens)"
reading = 0.308

[[record]]
structurenotation = "COc1cccc([C@H]2Oc3ccc(OC)cc3C(=NOC[C@@H](C)[C@H](OCc3ccccc3)C(C)C)[C@@H]2O)c1"
tgt = "Epidermal growth factor receptor (Homo sapiens)"
reading = -0.168

[[record]]
structurenotation = "O=C(NN=C1C[C@@H](O)[C@@H](O)[C@@H]2[C@@H]3C(=O)N(C[C@@H]4CCCO4)C(=O)[C@@H]3CC[C@H]12)OCc1ccccc1"
tgt = "Epidermal growth factor receptor (Homo sapiens)"
reading = -0.0485


* * *

tgt: Follistatin-related protein 3 (Homo sapiens) (UniProt O95633)
Sequence (O95633 whole entry, looked up): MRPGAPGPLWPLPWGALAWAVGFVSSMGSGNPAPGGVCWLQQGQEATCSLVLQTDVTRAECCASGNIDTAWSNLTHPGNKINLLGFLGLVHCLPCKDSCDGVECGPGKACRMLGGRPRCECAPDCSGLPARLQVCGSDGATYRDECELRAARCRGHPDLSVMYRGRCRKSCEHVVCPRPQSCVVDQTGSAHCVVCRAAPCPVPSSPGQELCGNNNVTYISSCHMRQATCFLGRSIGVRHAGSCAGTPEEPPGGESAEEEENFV
procedureDetails: FSTL3 binders on small-molecule microarrays, primary screen, biochemical, small-molecule microarray, 635 nm fluorescence (AID 1105);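 also: score merges emission near 667 nm and signal to noise per printed spot across three slides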
conditionNotes: FSTL3 binding, higher = more signal
measuredAttribute: composite z-score

[[record]]
molecule = "O=C1C[C@@H](O)[C@@H](O)[C@@H]2[C@@H]3C(=O)N(Cc4ccc5c(c4)OCO5)C(=O)[C@@H]3CC[C@H]12"
reading = 0.703

[[record]]
molecule = "CCO[C@H](c1cc(OC)cc([N+](=O)[O-])c1OC)[C@H](C)C=CCC(=O)OC"
reading = 0.385

[[record]]
molecule = "COC(=O)CC=C[C@@H](C)[C@@H](C=NOC[C@H]1O[C@H](c2ccccc2)C=C[C@@H]1Oc1ccc(OC)cc1)OC"
reading = 0.173

[[record]]
molecule = "CO[C@H]1COC(=O)[C@H](C)NC(=O)[C@@H](C)COC(=O)[C@H]2CCCN2C(=O)CC=C[C@H]1C"
reading = 0.736

[[record]]
molecule = "CCOC(=O)[C@H](CC(C)C)NC(=O)CCC1CC(OC(=O)NCc2ccc3c(c2)OCO3)CC2(CCCC(COC(=O)NCc3cccc(C(F)(F)F)c3)O2)O1 (stereo not given in full)"
reading = 0.395

